Reported pKd values are given for each entry in this list.
TEST SYSTEM: T1, NHERF3_1, Q5T2W1
T1 sequence (Q5T2W1 4-100, limits assumed, looked up): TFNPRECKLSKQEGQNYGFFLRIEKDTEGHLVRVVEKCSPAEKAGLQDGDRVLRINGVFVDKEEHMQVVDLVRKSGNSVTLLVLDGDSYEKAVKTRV
RUN DESCRIPTION: holdup assay
Set-up: key: below the threshold = too weak to quantify, mostly under pKd 3.1 to 4
CONDITION NOTES: plain residues with an end cap or a label only (N-terminal biotin on a linker: ado-ado)
Please give only the number in your answer, with no unit.

// solved cases for pKd follow
EVEEFPETSV [TRPV3, Q8NET8]
4.47
YLEPVLSSEL [ATP2A2, P16615;P16615-3]
5.47
CLREWCDAFL [BANF1, O75531]
4.78
IPLDGETEEL [MYOZ1, Q9NP98]
3.48
EVNETDDTKM [KCNJ1, P48048]
5.39

Quick note, pKd for QPCFNKLFPL [LPXN, O60711] landed at 4.01

Quick note, pKd for SARSRLSSNL [HCN2, Q9UL51] landed at 4.72

Quick note, pKd for TSQESEDTYL [TBC1D10A, Q9BXI6] landed at 5.69

Quick note, pKd for IKAIVDLTGL [TRAF2, Q12933] landed at 4.56

Quick note, pKd for KKAPTNEFYA [SDC4, P31431] landed at 3.79

Quick note, pKd for RHGSCVETSL [TMEM151B, Q8IW70] landed at 5.38
